# System: 134 cancer cell lines
# assay-method-text: Cell viability assay (ATPlite, 72 hours), IC50 on cancer cell line panel
# test-conditions: Homo sapiens, SW900, read-out: IC50 in cell proliferation assay, cell line SW900
Assignment: determine reported IC50 for the given compounds.

Example entries begin here.
record-smiles: CCN1CCN(c2ccc(Nc3cc(N(C)C(=O)Nc4c(Cl)c(OC)cc(OC)c4Cl)ncn3)cc2)CC1
test-result: > 3.16 µM

record-smiles: FC(F)(F)c1ccc(CNc2ccc(Cc3c[nH]c4ncc(Cl)cc34)cn2)cn1
test-result: > 31.6 µM

record-smiles: O=C(Nc1cnn2ccc(N3CCC[C@@H]3c3cc(F)ccc3F)nc12)N1CC[C@H](O)C1
test-result: > 31.6 µM

Now consider a different compound.
[ask] Given Cc1cc(Nc2ncnc3ccc(NC4=NC(C)(C)CO4)cc23)ccc1Oc1ccn2ncnc2c1 , state its recorded IC50.
[reply] > 31.6 µM
